Data provenance is patent US6211244A.

Target: human calcium receptor (Homo sapiens, UniProt P41180, R990G)
Construct: expressed in transfected cells; host or cells: HEK 293
Sequence (P41180 20-1078 R990G): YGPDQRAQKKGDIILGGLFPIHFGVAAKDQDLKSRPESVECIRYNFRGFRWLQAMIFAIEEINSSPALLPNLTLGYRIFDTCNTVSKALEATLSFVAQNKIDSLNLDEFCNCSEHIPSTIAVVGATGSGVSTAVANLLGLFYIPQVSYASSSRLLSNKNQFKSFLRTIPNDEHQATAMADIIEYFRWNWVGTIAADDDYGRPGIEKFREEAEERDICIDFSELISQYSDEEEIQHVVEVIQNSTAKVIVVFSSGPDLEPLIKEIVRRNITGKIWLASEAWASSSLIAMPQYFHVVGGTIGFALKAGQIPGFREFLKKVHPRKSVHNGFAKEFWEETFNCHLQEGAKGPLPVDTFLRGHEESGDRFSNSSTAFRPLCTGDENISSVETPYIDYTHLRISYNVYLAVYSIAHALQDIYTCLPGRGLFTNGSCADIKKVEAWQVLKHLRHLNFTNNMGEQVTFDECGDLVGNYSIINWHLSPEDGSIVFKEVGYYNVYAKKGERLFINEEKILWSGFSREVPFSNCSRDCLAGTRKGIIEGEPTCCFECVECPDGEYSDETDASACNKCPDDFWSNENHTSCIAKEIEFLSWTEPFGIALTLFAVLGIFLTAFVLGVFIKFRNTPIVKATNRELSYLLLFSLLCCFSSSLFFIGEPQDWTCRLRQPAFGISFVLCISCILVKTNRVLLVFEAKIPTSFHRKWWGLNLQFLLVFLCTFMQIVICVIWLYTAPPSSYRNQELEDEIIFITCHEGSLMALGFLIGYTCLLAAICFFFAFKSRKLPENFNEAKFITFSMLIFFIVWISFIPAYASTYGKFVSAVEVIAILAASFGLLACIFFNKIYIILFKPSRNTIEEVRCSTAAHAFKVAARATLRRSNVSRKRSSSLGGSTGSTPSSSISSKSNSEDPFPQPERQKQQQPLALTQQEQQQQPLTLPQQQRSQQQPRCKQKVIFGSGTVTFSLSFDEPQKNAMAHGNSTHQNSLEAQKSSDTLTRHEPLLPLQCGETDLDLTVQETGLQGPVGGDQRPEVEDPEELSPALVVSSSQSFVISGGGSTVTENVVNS
Experiment: increases in [Ca^2+ ]i in HEK-293 cells expressing the human calcium receptor (fura-2 loaded HEK 293/pHuPCaR4.0 cells), % activity
Assay type: cell-based
Conditions: 33 ng/mL
Would you please tag the item class 1 when its % activity is 80% or above, and class 0 when it is below?

>>> class("CC(NCc1ccc(-c2ccccc2)cc1)c1cccc2ccccc12 (centres unmarked) [Compound 10N]")
"class 0"
>>> class("COc1ccc(CNC(C)c2ccc(Br)cc2)cc1C (centres unmarked) [Compound 23R]")
"class 0"
>>> class("CC(NCCc1ccccc1)c1ccc(C(C)(C)C)cc1 (centres unmarked) [Compound 14H]")
"class 0"
>>> class("COc1ccc(C(NC(C)c2cccc3ccccc23)C2CC2)cc1 (single isomer, unassigned) [Compound 17I]")
"class 0"
>>> class("C[C@@H](NCc1ccc(Cl)cc1)c1cccc2ccccc12 [Compound 13O]")
"class 1"

query: Quick check, % activity >= 80%? CCN(CCCc1ccccc1)C(C)c1ccc(C(C)(C)C)cc1 (centres unmarked) [Compound 14I]
result: class 0

query: For COc1ccc([C@@H](C)N[C@@H](C)c2cccc3ccccc23)cc1C [Compound 25W] then?
result: class 0

query: Check COc1ccc(CNC(C)c2ccc(F)cc2)cc1C (centres unmarked) [Compound 23L] too.
result: class 0
